assay: BIAcore binding of proteins to heparin immobilised on a biosensor chip; settings: IL-4 WT and mutants binding to heparin; in s-1 (unit assumed)
PROPERTY_LABEL: kd
Keep it simple and answer with nothing but the number.

>>> result_value("K77A/R81A: IL-4 double mutant (protein) HKCDITLQEIIKTLNSLTEQKTLCTELTVTDIFAASKNTTEKETFCRAATVLRQFYSHHEKDTRCLGATAQQFHRHAQLIAFLKRLDRNLWGLAGLNSCPVKEANQSTLENFLERLKTIMREKYSKCSS")
"1.55E−03"
>>> result_value("K21A: IL-4 mutant, baculovirus expressed (protein) HKCDITLQEIIKTLNSLTEQATLCTELTVTDIFAASKNTTEKETFCRAATVLRQFYSHHEKDTRCLGATAQQFHRHKQLIRFLKRLDRNLWGLAGLNSCPVKEANQSTLENFLERLKTIMREKYSKCSS")
"2.53E−03"

Please give the measured kd for this molecule: R81A: IL-4 mutant, baculovirus expressed (protein) HKCDITLQEIIKTLNSLTEQKTLCTELTVTDIFAASKNTTEKETFCRAATVLRQFYSHHEKDTRCLGATAQQFHRHKQLIAFLKRLDRNLWGLAGLNSCPVKEANQSTLENFLERLKTIMREKYSKCSS
2.37E−03
